- assayProtocol: Cytotoxicity against african green monkey Vero cells after 3 days by neutral red dye method
- Type: cell-based
- assayConditions: chlorocebus sabaeus
Below, each of the compounds is paired with its reported CC50 at 72 h value.

// lookup CC50 at 72 h for O=c1c(-c2ccccc2)c(O)ccn1[C@@H]1O[C@H](CO)[C@@H](O)[C@H]1O
> 400 µM

Then this compound: O=c1c(-c2ccc(-c3ccccc3)cc2)c(O)ccn1[C@@H]1O[C@H](CO)[C@@H](O)[C@H]1O
> 200 µM

What about CC(=O)OC[C@H]1O[C@@H](n2ccc(O)c(-c3ccc(OC(F)(F)F)cc3)c2=O)[C@H](OC(C)=O)[C@@H]1OC(C)=O ?
> 200 µM

For CC(C)(C)c1ccc(-c2c(O)ccn([C@@H]3O[C@H](CO)[C@@H](O)[C@H]3O)c2=O)cc1 then?
> 200 µM

Record: COc1ccc(-c2cn([C@@H]3O[C@H](CO)[C@@H](O)[C@H]3O)c(=O)cc2O)cc1
> 200 µM

* * *

- assayProtocol: Cytotoxicity against african green monkey Vero cells after 3 days by neutral red dye method
- Assay type: cell-based
- assayConditions: chlorocebus sabaeus
metricName: CC50 at 72 h

COc1ccc(-c2c(O)ccn([C@@H]3O[C@H](COC(C)=O)[C@@H](OC(C)=O)[C@H]3OC(C)=O)c2=O)cc1OC; > 200 µM
CCOc1ccc(-c2c(O)ccn([C@@H]3O[C@H](COC(C)=O)[C@@H](OC(C)=O)[C@H]3OC(C)=O)c2=O)cc1; > 200 µM
Nc1nc2c(ncn2COCCO)c(=O)[nH]1; > 200 µM
CC(=O)OC[C@H]1O[C@@H](n2ccc(O)c(-c3ccc(S(C)(=O)=O)cc3)c2=O)[C@H](OC(C)=O)[C@@H]1OC(C)=O; > 200 µM
Cc1ccc(-c2c(O)ccn([C@@H]3O[C@H](CO)[C@@H](O)[C@H]3O)c2=O)cc1; > 400 µM

Dear colleague, I am looking for the recorded CC50 at 72 h of the following compound: CC(=O)OC[C@H]1O[C@@H](n2cc(-c3ccccc3)c(O)cc2=O)[C@H](OC(C)=O)[C@@H]1OC(C)=O
> 200 µM

* * *

- assayProtocol: Cytotoxicity against african green monkey Vero cells after 3 days by neutral red dye method
- Format: cell-based
- assayConditions: chlorocebus sabaeus
// CC50 at 72 h lookup, one value per entry

COc1ccc(-c2c(O)ccn([C@@H]3O[C@H](CO)[C@@H](O)[C@H]3O)c2=O)cc1OC; > 400 µM
O=c1c(CCc2ccccc2)c(O)ccn1[C@@H]1O[C@H](CO)[C@@H](O)[C@H]1O; > 400 µM
COc1ccc(-c2c(O)ccn([C@@H]3O[C@H](COC(C)=O)[C@@H](OC(C)=O)[C@H]3OC(C)=O)c2=O)cc1; > 200 µM

Please examine the following record next.
Could you share which CC50 at 72 h value was measured for COc1cc(-c2c(O)ccn([C@@H]3O[C@H](COC(C)=O)[C@@H](OC(C)=O)[C@H]3OC(C)=O)c2=O)cc(OC)c1OC ?
> 200 µM
